# EXPERIMENTAL TARGET: IKZF2 (Homo sapiens, UniProt Q96SW2+Q9UKS7)
# Construct: expressed in transfected cells
# Sequence (Q9UKS7 1-500 isoform Q9UKS7-2): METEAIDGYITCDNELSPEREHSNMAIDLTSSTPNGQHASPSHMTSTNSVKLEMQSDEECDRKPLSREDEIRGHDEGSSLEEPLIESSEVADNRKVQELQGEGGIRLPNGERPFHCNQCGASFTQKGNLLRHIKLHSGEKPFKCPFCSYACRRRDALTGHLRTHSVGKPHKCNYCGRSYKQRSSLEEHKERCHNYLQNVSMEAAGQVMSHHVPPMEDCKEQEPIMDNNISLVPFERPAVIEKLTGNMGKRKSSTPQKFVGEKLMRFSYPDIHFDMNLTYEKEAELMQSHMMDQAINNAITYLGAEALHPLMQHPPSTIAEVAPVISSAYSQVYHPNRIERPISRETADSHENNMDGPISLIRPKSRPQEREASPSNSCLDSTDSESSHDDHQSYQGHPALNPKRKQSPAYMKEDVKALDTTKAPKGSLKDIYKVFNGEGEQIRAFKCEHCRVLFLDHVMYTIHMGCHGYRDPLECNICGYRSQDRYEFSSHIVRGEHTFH
# Sequence (Q96SW2 whole entry): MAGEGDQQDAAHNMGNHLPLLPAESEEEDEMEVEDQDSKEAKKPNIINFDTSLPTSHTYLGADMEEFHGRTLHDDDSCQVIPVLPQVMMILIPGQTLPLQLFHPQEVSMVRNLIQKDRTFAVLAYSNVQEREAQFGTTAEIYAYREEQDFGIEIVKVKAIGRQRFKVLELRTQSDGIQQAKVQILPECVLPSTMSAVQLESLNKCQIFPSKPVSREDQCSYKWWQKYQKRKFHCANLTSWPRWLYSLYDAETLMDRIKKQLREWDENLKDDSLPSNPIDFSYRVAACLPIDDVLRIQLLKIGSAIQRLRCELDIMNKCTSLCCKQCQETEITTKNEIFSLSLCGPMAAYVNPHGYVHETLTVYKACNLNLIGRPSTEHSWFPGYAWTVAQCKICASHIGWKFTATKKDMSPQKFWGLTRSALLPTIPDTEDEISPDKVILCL
# Sequence (Q16531 whole entry partner): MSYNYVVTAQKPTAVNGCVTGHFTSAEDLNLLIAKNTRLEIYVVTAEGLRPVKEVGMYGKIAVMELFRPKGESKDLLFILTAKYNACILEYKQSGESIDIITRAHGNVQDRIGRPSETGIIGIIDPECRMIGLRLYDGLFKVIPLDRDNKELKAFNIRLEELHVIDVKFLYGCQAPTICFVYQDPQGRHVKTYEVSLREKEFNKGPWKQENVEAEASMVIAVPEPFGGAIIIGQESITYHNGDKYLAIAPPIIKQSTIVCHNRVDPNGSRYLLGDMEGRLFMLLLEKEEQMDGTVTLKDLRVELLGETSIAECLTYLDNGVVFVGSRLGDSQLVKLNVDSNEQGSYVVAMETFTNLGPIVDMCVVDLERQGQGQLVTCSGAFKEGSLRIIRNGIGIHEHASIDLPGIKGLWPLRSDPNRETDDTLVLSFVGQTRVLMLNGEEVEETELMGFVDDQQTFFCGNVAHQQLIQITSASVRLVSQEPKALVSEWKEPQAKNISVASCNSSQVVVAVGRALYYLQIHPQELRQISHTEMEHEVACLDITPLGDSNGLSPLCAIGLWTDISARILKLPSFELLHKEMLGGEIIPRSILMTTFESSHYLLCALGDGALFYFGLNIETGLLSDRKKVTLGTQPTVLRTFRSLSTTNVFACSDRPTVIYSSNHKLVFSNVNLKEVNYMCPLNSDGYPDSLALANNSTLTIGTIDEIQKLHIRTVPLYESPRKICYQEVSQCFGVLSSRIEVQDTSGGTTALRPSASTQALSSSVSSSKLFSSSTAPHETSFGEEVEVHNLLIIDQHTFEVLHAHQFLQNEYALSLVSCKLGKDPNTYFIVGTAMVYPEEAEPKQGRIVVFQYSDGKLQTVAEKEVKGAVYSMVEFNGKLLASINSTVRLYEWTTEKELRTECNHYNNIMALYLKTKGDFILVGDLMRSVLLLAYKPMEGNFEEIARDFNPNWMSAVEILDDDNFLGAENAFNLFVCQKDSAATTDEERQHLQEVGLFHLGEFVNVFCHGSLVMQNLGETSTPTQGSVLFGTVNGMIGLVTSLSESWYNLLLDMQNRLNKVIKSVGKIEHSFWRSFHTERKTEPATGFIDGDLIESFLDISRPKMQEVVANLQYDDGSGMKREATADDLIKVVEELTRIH
# METHOD NOTES: HiBiT protein tagging assay, in vitro IKZF2 degradation (HEK293)
# Assay type: cell-based
# TEST CONTEXT: IKZF2-HiBiT reporter Flp-In T-REx HEK293 cells, doxycycline-induced, compound overnight (18-24 hr), normalized to DMSO control; read-out: IKZF2 Dmax (maximum degradation at the highest concentration tested)
# Protocol: In vitro degradation of IKZF1 and IKZF2 was measured using HiBiT protein tagging and detection technology (Promega). HiBiT technology (Promega) was used to develop the quantitative assays to measure the cellular IKZFs level by tagging an 11 amino acid HiBit peptides VSGWRLFKKIS (SEQ ID NO:1) to the protein of interest. Reporter plasmids were generated by fusing a linker sequence (GSSGGSSG; SEQ ID NO:2) followed by the HiBiT tag at the C terminus of IKZF1 and IKZF2. […]
RECORDED METRIC: Dmax (%)
Give bare numbers, in %.

Please review the following examples before continuing.
# COMPOUND, READOUT UNIT, Dmax
measured = [
    ("CC(C)N[C@H]1CCN(Cc2cnccn2)C[C@@H]1Oc1ccc2c(c1)CN(C1CCC(=O)NC1=O)C2=O (some centres unmarked) [Example 68]", "%", 74),
    ("O=C1CCC(N2Cc3cc(O[C@H]4CN(CCF)CC[C@@H]4NCc4ccccc4)ccc3C2=O)C(=O)N1 (mixture of isomers) [Example 53]", "%", 77),
    ("O=C1CCC(N2Cc3cc(O[C@H]4CN(Cc5ccc(F)cc5F)CC[C@@H]4NCc4ccccc4)ccc3C2=O)C(=O)N1 (mixture of isomers) [Example 21]", "%", 92),
]

Parameter requested: Dmax. Apply to each item below.
1. O=C1CCC(N2Cc3cc(OC4CN(Cc5ccccc5)CCC4Nc4ccccc4)ccc3C2=O)C(=O)N1 (centres unmarked) [Example 43]
2. O=C1CCC(N2Cc3cc(O[C@@H]4CN(CC(F)(F)F)CC[C@H]4NCc4ccccc4)ccc3C2=O)C(=O)N1 (relative stereo) [Example 40]
3. O=C1CCC(N2Cc3cc(OC4CN(Cc5ccccc5)CCC4NCc4ccncc4)ccc3C2=O)C(=O)N1 (racemic) [Example 15]
4. O=C1CCC(N2Cc3cc(O[C@H]4CN(Cc5cc(F)cc(F)c5)CC[C@@H]4NCc4ccccc4)ccc3C2=O)C(=O)N1 (mixture of isomers) [Example 25]
5. O=C1CCC(N2Cc3cc(OC4CN(Cc5ccccc5)CCC4NC(=O)c4ccccc4)ccc3C2=O)C(=O)N1 (centres unmarked) [Example 44]
6. CCN(CC)C1CCN(Cc2ccc3ccccc3c2)CC1Oc1ccc2c(c1)CN(C1CCC(=O)NC1=O)C2=O (racemic) [Example 57]
7. CCNC1CCN(Cc2cccc(-c3ccccc3)c2)CC1Oc1ccc2c(c1)CN(C1CCC(=O)NC1=O)C2=O (racemic) [Example 60]
8. O=C1CCC(N2Cc3cc(O[C@H]4CN(Cc5ccc(Cl)cc5)CC[C@@H]4NCc4ccccc4)ccc3C2=O)C(=O)N1 (mixture of isomers) [Example 30]

48
57
73
75
79
98
83
95

###

Record form. Attribute: Dmax. Fill in for each entry.
# EXPERIMENTAL TARGET: IKZF2 (Homo sapiens, UniProt Q96SW2+Q9UKS7)
# Construct: expressed in transfected cells
# METHOD NOTES: HiBiT protein tagging assay, in vitro IKZF2 degradation (HEK293)
# Type: cell-based
# TEST CONTEXT: IKZF2-HiBiT reporter Flp-In T-REx HEK293 cells, doxycycline-induced, compound overnight (18-24 hr), normalized to DMSO control; read-out: IKZF2 Dmax (maximum degradation at the highest concentration tested)
Numbers only, in %.

Please review the following examples before continuing.
# COMPOUND, READOUT UNIT, Dmax
records = [
    ("O=C1CCC(N2Cc3cc(O[C@@H]4CN(C5CC5)CC[C@H]4NCc4ccccc4)ccc3C2=O)C(=O)N1 (mixture of isomers)", "%", 57),
    ("O=C1CCC(N2Cc3cc(O[C@H]4CN(Cc5ccccc5)CC[C@@H]4NCc4ccccc4Cl)ccc3C2=O)C(=O)N1 (mixture of isomers)", "%", 69),
    ("O=C1CCC(N2Cc3cc(OC4CN(Cc5ccccc5)CCC4NCCF)ccc3C2=O)C(=O)N1 (racemic)", "%", 86),
    ("O=C1CCC(N2Cc3cc(OC4CN(Cc5ccncc5)CCC4NCc4ccccc4)ccc3C2=O)C(=O)N1 (racemic)", "%", 87),
]

Parameter requested: Dmax. Apply to each item below.
1. CC(C)N1CCC(NCc2ccccc2)C(Oc2ccc3c(c2)CN(C2CCC(=O)NC2=O)C3=O)C1 (racemic)
2. O=C1CCC(N2Cc3cc(OC4CN(Cc5ccccc5)CCC4NCC4CC4)ccc3C2=O)C(=O)N1 (racemic)
3. CC(C)NC1CCN(Cc2ccccc2)CC1Oc1ccc2c(c1)CN(C1CCC(=O)NC1=O)C2=O (racemic)

1: 47; 2: 98; 3: 98

###

# EXPERIMENTAL TARGET: IKZF2 (Homo sapiens, UniProt Q96SW2+Q9UKS7)
# Construct: expressed in transfected cells
# METHOD NOTES: HiBiT protein tagging assay, in vitro IKZF2 degradation (HEK293)
# Type: cell-based
# TEST CONTEXT: IKZF2-HiBiT reporter Flp-In T-REx HEK293 cells, doxycycline-induced, compound overnight (18-24 hr), normalized to DMSO control; read-out: IKZF2 Dmax (maximum degradation at the highest concentration tested)
Record form. Attribute: Dmax. Fill in for each entry.
One number for each entry, in %.

Please review the following examples before continuing.
# MOLECULE, EXPERIMENTAL TARGET, REPORTED VALUE
rows = [
    ("O=C1CCC(N2Cc3cc(OC4CN(Cc5ccccc5)CCC4NCc4ccccn4)ccc3C2=O)C(=O)N1 (racemic)", "IKZF2 (Homo sapiens, UniProt Q96SW2+Q9UKS7)", 84),
    ("O=C1CCC(N2Cc3cc(O[C@H]4CN(Cc5ccc(F)c(F)c5)CC[C@@H]4NCc4ccccc4)ccc3C2=O)C(=O)N1 (mixture of isomers)", "IKZF2 (Homo sapiens, UniProt Q96SW2+Q9UKS7)", 90),
    ("CCN(CC)C1CCN(Cc2ccccc2)CC1Oc1ccc2c(c1)CN(C1CCC(=O)NC1=O)C2=O (racemic)", "IKZF2 (Homo sapiens, UniProt Q96SW2+Q9UKS7)", 90),
    ("O=C1CCC(N2Cc3cc(O[C@H]4CN(Cc5ccccc5Cl)CC[C@@H]4NCc4ccccc4)ccc3C2=O)C(=O)N1 (mixture of isomers)", "IKZF2 (Homo sapiens, UniProt Q96SW2+Q9UKS7)", 85),
]

Parameter requested: Dmax. Apply to each item below.
1. O=C1CCC(N2Cc3cc(O[C@H]4CN(Cc5ccccc5)CC[C@@H]4NCc4ccccc4F)ccc3C2=O)C(=O)N1 (mixture of isomers)
2. C[C@H](c1ccccc1)N1CC[C@H](NCc2ccccc2)[C@@H](Oc2ccc3c(c2)CN(C2CCC(=O)NC2=O)C3=O)C1 (mixture of isomers)

[90, 57]

###

# EXPERIMENTAL TARGET: IKZF2 (Homo sapiens, UniProt Q96SW2+Q9UKS7)
# Construct: expressed in transfected cells
# METHOD NOTES: HiBiT protein tagging assay, in vitro IKZF2 degradation (HEK293)
# Format: cell-based
# TEST CONTEXT: IKZF2-HiBiT reporter Flp-In T-REx HEK293 cells, doxycycline-induced, compound overnight (18-24 hr), normalized to DMSO control; read-out: IKZF2 Dmax (maximum degradation at the highest concentration tested)
RECORDED METRIC: Dmax (%)
Numbers only, in %.

Please review the following examples before continuing.
# COMPOUND, Dmax, %
data = [
    ("CCN1CCC(NCc2ccccc2)C(Oc2ccc3c(c2)CN(C2CCC(=O)NC2=O)C3=O)C1 (racemic)", 51),
    ("O=C1CCC(N2Cc3cc(OC4CN(Cc5ccccc5)CCC4NCc4ccccc4)ccc3C2=O)C(=O)N1 (racemic)", 94),
    ("CCNC1CCN(Cc2ccccc2)CC1Oc1ccc2c(c1)CN(C1CCC(=O)NC1=O)C2=O (racemic)", 97),
]

Consider now this further compound.
Using known records, supply Dmax for CC(C)N[C@H]1CCN(Cc2ncco2)C[C@@H]1Oc1ccc2c(c1)CN(C1CCC(=O)NC1=O)C2=O (stereo partly shown)
64

###

Record form. Attribute: Dmax. Fill in for each entry.
# EXPERIMENTAL TARGET: IKZF2 (Homo sapiens, UniProt Q96SW2+Q9UKS7)
# Construct: expressed in transfected cells
# METHOD NOTES: HiBiT protein tagging assay, in vitro IKZF2 degradation (HEK293)
# Type: cell-based
# TEST CONTEXT: IKZF2-HiBiT reporter Flp-In T-REx HEK293 cells, doxycycline-induced, compound overnight (18-24 hr), normalized to DMSO control; read-out: IKZF2 Dmax (maximum degradation at the highest concentration tested)
# Protocol: In vitro degradation of IKZF1 and IKZF2 was measured using HiBiT protein tagging and detection technology (Promega). HiBiT technology (Promega) was used to develop the quantitative assays to measure the cellular IKZFs level by tagging an 11 amino acid HiBit peptides VSGWRLFKKIS (SEQ ID NO:1) to the protein of interest. Reporter plasmids were generated by fusing a linker sequence (GSSGGSSG; SEQ ID NO:2) followed by the HiBiT tag at the C terminus of IKZF1 and IKZF2. […]
Answers are plain numbers, in %.

Please review the following examples before continuing.
# MOLECULE, RECORDED METRIC, READOUT UNIT, REPORTED VALUE
data = [
    ("O=C1CCC(N2Cc3cc(O[C@H]4CN(Cc5ccccc5)CC[C@@H]4NCc4cccc(F)c4)ccc3C2=O)C(=O)N1 (mixture of isomers) [Example 29]", "Dmax", "%", 88),
    ("CC(C)N[C@H]1CCN(Cc2nccs2)C[C@@H]1Oc1ccc2c(c1)CN(C1CCC(=O)NC1=O)C2=O (stereo partly shown) [Example 62]", "Dmax", "%", 103),
    ("O=C1CCC(N2Cc3cc(O[C@H]4CN(Cc5ccc(C(F)(F)F)cc5)CC[C@@H]4NCc4ccccc4)ccc3C2=O)C(=O)N1 (mixture of isomers) [Example 34]", "Dmax", "%", 80),
]

Consider now this further molecule.
Using known records, supply Dmax for O=C1CCC(N2Cc3cc(OC4CN(Cc5ccccc5)CCC4NCc4cccnc4)ccc3C2=O)C(=O)N1 (racemic) [Example 14]
91
